Test: MTT cytotoxicity assay, LO2
Assay type: cell-based
Details: human, LO2 cells (immortalized normal human liver), normal cell line LO2, MTT, 0.19–100 μM
Please respond with reported IC50 at 72 h for every item in the list.

# COMPOUND, VAL
rows = [
    ("C=C1C2CCC3C4(C)CCCC(C)(C(=O)O)C4CCC3(C2)C1OC(=O)C(C)=CC (stereo not shown)", "> 100 µM"),
    ("C=C1C2CCC3(O)C4(C)CCCC(C)(C(=O)OC)C4CCC3(C2)C1OC(=O)C(C)=CC (stereo not shown)", "> 100 µM"),
]

Please supply IC50 at 72 h for each of the following items, keeping them in order.
1. CC(=O)O[C@H]1C(=O)[C@@]2(C)[C@H]([C@H](OC(=O)c3ccccc3)[C@]3(O)C[C@H](OC(=O)[C@H](O)[C@@H](NC(=O)c4ccccc4)c4ccccc4)C(C)=C1C3(C)C)[C@]1(OC(C)=O)CO[C@@H]1C[C@@H]2O [Paclitaxel, reference compound]
2. CC=C(C)C(=O)OC1C23CCC4C(C)(C(=O)O)CCCC4(C)C2CCC(C3)C12CO2 (stereo not shown)
3. CO[C@@]1(C)C[C@@]23CC[C@@H]4[C@](C)(C(=O)O)CCC[C@@]4(C)C2=CC[C@@H]1C3

["< 0.1 µM", "> 100 µM", "> 100 µM"]

// each compound listed below needs its IC50 at 72 h
1. C=C1C2CCC3(O)C4(C)CCCC(C)(C(=O)O)C4CCC3(C2)C1OC(=O)C(C)=CC (stereo not shown)
2. C=C1CC23CCC4C(C)(C(=O)O)CCCC4(C)C2CCC1C3 (stereo not shown)

["57.2 µM", "> 100 µM"]

Where do the numbers come from? From paper PMC6321058.
